Test: Lipid nanoparticle size and polydispersity by dynamic light scattering
Assay type: physicochemical
Conditions: LNP of lipid/DSPC/cholesterol/PEG-lipid 50:10:38.5:1.5 encapsulating hEPO mRNA
Let's look at some compounds and their measured size (nm).

COMPOUND	UNIT_LABEL	size (nm)
CCCCCCCCC(CCCCCC)CNC(=O)CCCCCN(CCO)CCN(CCCCC(COC(=O)CCCCCCC)COC(=O)CCCCCCC)C1CCCCCCC1 (stereo not shown) [Compound 145]	nm	68.91
CCCCCCCCC(CCCCCC)CNC(=O)CCCCCN(CCOCCO)CCN(CCCCC(COC(=O)CCCCCCC)COC(=O)CCCCCCC)C1CCCCCC1 (stereo not shown) [Compound 207]	nm	87.97
CCCCCCCCC(CCCCCCCC)COC(=O)CCCCCN(CCO)CCN(CCCCCC(=O)OCC(CCCCCCCC)CCCCCCCC)Cc1ccccc1 [Compound 36]	nm	49.69
CCCCCCCCC(CCCCCCCC)CNC(=O)CCCCCN(CCO)CCN(CCCCCC(=O)NCC(CCCCCCCC)CCCCCCCC)C1CCCCC1 [Compound 13]	nm	60.71
CCCCCCCCC(CCCCCC)COC(=O)CCCCCN(CC)CCN(CCO)CCCCC(COC(=O)CCCCCCC)COC(=O)CCCCCCC (stereo not shown) [Compound 157]	nm	88.09
CCCCCCCCCC(=O)OCC(CCCCN(CCO)CCN(CCCCC(COC(=O)CCCCCCCCC)COC(=O)CCCCCCCCC)C1CCC1)COC(=O)CCCCCCCCC [Compound 167]	nm	69.47
CCCCCCCCCCCOC(=O)CCCCCN(CCN(CCCCCC(=O)OCC(CCCCCCCC)CCCCCCCC)CCNc1c(NC)c(=O)c1=O)C1CCC1 [Compound 82]	nm	67.32
CCCCCCCCC(CCCCCC)CNC(=O)CCCCCN(CCO)CCN(CCCCC(COC(=O)CCCCCCC)COC(=O)CCCCCCC)C1CCCCC1 (stereo not shown) [Compound 140]	nm	71.01
CCCCC/C=C\C/C=C\CCCCCCCC(=O)OCCCCCN(CCN(CCO)CCCCCC(=O)OCC(CCCCCCCC)CCCCCCCC)C1CCCCC1 [Compound 108]	nm	67.69
CCCCCCCCC(CCCCCCCC)COC(=O)CCCCCN(CCO)CCN(CCCCCOC(=O)CCCCC=C(CCCCCC)CCCCCC)C1CCC1 [Compound 87]	nm	70.07
CCCCCCCCCCCOC(=O)CCCCCN(CCN(CCO)CCCCCC(=O)NCC(CCCCCCCC)CCCCCCCC)C1CCCCC1 [Compound 44]	nm	77.48
CCCCCCCCC(CCCCCCCC)COC(=O)CCCCCN(CC)CCN(CCO)CCCCCC(=O)OCC(CCCCCCCC)CCCCCCCC [Compound 27]	nm	57.08
CCCCCCCCC(CCCCCCCC)COC(=O)CCCCCN(CC=C(C)C)CCN(CCCCCC(=O)OCC(CCCCCCCC)CCCCCCCC)C1CCC(O)CC1 (stereo not shown) [Compound 126]	nm	61.57

###

Assay: Encapsulation efficiency of lipid nanoparticles, Quant-it Ribogreen RNA assay
Assay type: physicochemical
Conditions: LNP of lipid/DSPC/cholesterol/PEG-lipid 50:10:38.5:1.5 encapsulating hEPO mRNA
Protocol: Briefly, a cationic lipid provided herein, DSPC, cholesterol, and PEG-lipid were solubilized in ethanol at a molar ratio of 50:10:38.5:1.5, and mRNA were diluted in 10 to 50 mM citrate buffer, pH=4. […] Lipid nanoparticle size were determined by dynamic light scattering using a Malvern Zetasizer Nano ZS (Malvern UK) using a […] backscatter detection mode. […]
ASSAY_READOUT: Encapsulation Efficiency (%)

In [3]: df
Out[3]:
                                   compound             assay_readout  unit_label  reported_result
0  CCCCCCCCC(CCCCCC)CNC(=O)CCCCCN(CC)CCN(CCO)CCCCC(COC(=O)CCCCCCC)COC(=O)CCCCCCC (stereo not drawn)  Encapsulation Efficiency           %            90.71
1  CCCCCCCCC(CCCCCC)C(=O)OCCCCCCN(CCO)CCN(CCCCCCOC(=O)C(CCCCCC)CCCCCCCC)C1CCC1 (stereo not drawn)  Encapsulation Efficiency           %            88.86
2  CCCCCCCCCCCCCCCCOC(=O)CCCCCN(CCN(CCO)CCCCCC(=O)OCC(CCCCCCCC)CCCCCCCC)C1CCCCCCC1  Encapsulation Efficiency           %            92.18
